Target: T1, Tie2 ectodomain (residues 23-445) (human, UniProt Q02763 23-445)
T1 construct: range 23-445; also called Angiopoietin-1 receptor
T1 sequence (Q02763 other isoform, or with tags, fused parts or gaps limits assumed): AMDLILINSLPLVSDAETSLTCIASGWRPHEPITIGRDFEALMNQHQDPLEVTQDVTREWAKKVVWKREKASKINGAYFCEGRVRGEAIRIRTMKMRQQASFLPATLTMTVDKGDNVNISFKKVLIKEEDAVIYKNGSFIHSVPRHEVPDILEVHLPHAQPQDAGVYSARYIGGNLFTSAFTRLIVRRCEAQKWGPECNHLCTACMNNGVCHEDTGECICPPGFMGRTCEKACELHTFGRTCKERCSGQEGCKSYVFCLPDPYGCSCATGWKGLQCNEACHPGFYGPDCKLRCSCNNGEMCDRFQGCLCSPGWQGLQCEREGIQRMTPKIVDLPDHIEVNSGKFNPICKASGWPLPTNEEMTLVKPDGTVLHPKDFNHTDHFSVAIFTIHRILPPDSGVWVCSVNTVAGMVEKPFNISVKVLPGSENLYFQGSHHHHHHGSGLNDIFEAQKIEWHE
Assay: BLI (Octet); biotinylated target on streptavidin sensors, MBP-tagged miniprotein as analyte
quantity kind: pKd
// scale note: pKd = -log10(conc_M); give the bare number

For this binder ( MBP-tagged Tie2_mb (designed binder, not shown: N-terminal 6 His-tag and MBP tag) SIDEELERLLEEAGVDPELIDDLYAVIYQLYIRGLSDKDVLRFLLENLERDGTPLRRVVEELLKR ), measured pKd is 6.23
